Target Entity: HLA-A*33:01
Protocol Summary: IEDB peptide-MHC binding, purified MHC/competitive/radioactivity; filed as Kd, often an IC50 or EC50 that approximates it; bounds were set here for any values at or beyond the usual limits of such assays
Condition Summary: source organism: Dengue virus 1 Nauru/West Pac/1974
Endpoint: Kd (nM)
Numbers only; they are read as nM.

Quote Kd reported for `TTIITPMMR` please.
52.9

----------
Target Entity: HLA-A*03:19
Protocol Summary: IEDB peptide-MHC binding, purified MHC/competitive/fluorescence; filed as Kd, often an IC50 or EC50 that approximates it; bounds were set here for any values at or beyond the usual limits of such assays
Condition Summary: source organism: Orthohantavirus sinnombreense
Endpoint: Kd (µM)
Numbers only; they are read as µM.

Quote Kd reported for `YTFTSLFSL` please.
3.07
